Target or system: DNA gyrase (Escherichia coli, UniProt P0AES4+P0AES6)
Assay notes: Inhibition of Escherichia coli DNA gyrase supercoiling activity using relaxed pBR322 DNA as substrate preincubated for 5 mins followed by enzyme addition and measured after 1 hr by agarose gel electrophoresis
Format: protein-complex assay
Experimental endpoint: IC50 (nM)
Give just the number in nM; leave the unit off.

Entry N#Cc1cccc2c1CC(CNCCC1CN(c3ccc4c(n3)NC(=O)CO4)C(=O)O1)C2 (stereo unspecified) , DNA gyrase (Escherichia coli, UniProt P0AES4+P0AES6) data, IC50 value: 100

###

Target or system: Voltage-gated inwardly rectifying potassium channel KCNH2 (Homo sapiens, UniProt Q12809)
Sequence (Q12809 whole entry): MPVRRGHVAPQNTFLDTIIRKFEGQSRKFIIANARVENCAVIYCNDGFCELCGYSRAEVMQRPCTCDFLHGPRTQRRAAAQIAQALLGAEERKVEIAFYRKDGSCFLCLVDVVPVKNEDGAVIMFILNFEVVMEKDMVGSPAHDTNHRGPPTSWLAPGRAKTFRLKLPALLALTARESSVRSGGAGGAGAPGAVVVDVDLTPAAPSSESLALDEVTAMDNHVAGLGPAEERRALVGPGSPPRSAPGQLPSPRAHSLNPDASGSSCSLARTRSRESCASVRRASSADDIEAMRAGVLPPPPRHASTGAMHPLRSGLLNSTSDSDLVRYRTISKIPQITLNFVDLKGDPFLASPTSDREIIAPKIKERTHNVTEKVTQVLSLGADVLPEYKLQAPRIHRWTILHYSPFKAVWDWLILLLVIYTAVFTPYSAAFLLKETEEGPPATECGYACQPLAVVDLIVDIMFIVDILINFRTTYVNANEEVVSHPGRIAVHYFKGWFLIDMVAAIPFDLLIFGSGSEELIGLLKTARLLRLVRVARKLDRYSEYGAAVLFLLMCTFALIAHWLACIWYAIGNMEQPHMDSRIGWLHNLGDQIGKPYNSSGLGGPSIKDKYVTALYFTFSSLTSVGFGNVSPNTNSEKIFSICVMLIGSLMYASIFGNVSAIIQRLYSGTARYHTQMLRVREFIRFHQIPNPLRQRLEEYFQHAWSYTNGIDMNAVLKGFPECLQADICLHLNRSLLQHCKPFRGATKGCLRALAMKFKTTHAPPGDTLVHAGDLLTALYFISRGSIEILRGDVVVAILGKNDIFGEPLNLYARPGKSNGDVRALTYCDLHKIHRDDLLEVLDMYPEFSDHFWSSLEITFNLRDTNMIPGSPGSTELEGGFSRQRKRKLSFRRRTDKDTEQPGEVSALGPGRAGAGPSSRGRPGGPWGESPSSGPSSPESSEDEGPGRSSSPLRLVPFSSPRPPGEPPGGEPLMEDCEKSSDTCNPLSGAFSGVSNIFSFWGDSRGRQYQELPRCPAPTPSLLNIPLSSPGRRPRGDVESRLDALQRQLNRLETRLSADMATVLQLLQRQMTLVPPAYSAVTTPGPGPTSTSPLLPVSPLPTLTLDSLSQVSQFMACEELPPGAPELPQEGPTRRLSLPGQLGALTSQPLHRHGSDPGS
Assay notes: Inhibition of human ERG expressed in CHO cells by automated path clamp method
Experimental endpoint: IC50 (nM)
Give just the number in nM; leave the unit off.

Just so you know, measured IC50 for N#Cc1cccc2c1CC(CNCCC1CN(c3ccc4c(n3)NC(=O)CO4)C(=O)O1)C2 (stereo unspecified) came out at 900

###

Assignment: determine reported MIC for the given molecules.
Test system: Escherichia coli
Assay notes: Antibacterial activity against Escherichia coli ATCC 25922 incubated for 20 to 24 hrs by CLSI based broth microdilution method
Format: functional
Run conditions: time 20-24 hrs

Entry O=C1COc2ccc(N3CC(CCCNC4Cc5cccc(Cl)c5C4)OC3=O)nc2N1 (configuration not stated) , Escherichia coli data, MIC value: 0.25 mg/L

Entry N#Cc1cccc2c1CC(CNCCC1CN(c3ccc4c(n3)NC(=O)CO4)C(=O)O1)C2 (configuration not stated) , Escherichia coli data, MIC value: ≤ 0.06 mg/L

Entry O=C1COc2ccc(N3CC(CCNCC4Cc5ccccc5C4)OC3=O)nc2N1 (configuration not stated) , Escherichia coli data, MIC value: 1 mg/L

Entry N#Cc1cccc2c1CC(NCCCC1CN(c3ccc4c(n3)NC(=O)CO4)C(=O)O1)C2 (configuration not stated) , Escherichia coli data, MIC value: 0.25 mg/L

Entry O=C1COc2ccc(N3CC(CCCNC4Cc5cccc(F)c5C4)OC3=O)nc2N1 (configuration not stated) , Escherichia coli data, MIC value: 0.5 mg/L

Entry O=C1COc2ccc(N3CC(CCNCC4Cc5cccc(F)c5C4)OC3=O)nc2N1 (configuration not stated) , Escherichia coli data, MIC value: 0.5 mg/L

Entry O=C1COc2ccc(N3CC(CCNCCC4Cc5cccc(Cl)c5C4)OC3=O)nc2N1 (configuration not stated) , Escherichia coli data, MIC value: 0.5 mg/L

###

Target or system: DNA topoisomerase 2-alpha (Homo sapiens, UniProt P11388)
Sequence (P11388 whole entry): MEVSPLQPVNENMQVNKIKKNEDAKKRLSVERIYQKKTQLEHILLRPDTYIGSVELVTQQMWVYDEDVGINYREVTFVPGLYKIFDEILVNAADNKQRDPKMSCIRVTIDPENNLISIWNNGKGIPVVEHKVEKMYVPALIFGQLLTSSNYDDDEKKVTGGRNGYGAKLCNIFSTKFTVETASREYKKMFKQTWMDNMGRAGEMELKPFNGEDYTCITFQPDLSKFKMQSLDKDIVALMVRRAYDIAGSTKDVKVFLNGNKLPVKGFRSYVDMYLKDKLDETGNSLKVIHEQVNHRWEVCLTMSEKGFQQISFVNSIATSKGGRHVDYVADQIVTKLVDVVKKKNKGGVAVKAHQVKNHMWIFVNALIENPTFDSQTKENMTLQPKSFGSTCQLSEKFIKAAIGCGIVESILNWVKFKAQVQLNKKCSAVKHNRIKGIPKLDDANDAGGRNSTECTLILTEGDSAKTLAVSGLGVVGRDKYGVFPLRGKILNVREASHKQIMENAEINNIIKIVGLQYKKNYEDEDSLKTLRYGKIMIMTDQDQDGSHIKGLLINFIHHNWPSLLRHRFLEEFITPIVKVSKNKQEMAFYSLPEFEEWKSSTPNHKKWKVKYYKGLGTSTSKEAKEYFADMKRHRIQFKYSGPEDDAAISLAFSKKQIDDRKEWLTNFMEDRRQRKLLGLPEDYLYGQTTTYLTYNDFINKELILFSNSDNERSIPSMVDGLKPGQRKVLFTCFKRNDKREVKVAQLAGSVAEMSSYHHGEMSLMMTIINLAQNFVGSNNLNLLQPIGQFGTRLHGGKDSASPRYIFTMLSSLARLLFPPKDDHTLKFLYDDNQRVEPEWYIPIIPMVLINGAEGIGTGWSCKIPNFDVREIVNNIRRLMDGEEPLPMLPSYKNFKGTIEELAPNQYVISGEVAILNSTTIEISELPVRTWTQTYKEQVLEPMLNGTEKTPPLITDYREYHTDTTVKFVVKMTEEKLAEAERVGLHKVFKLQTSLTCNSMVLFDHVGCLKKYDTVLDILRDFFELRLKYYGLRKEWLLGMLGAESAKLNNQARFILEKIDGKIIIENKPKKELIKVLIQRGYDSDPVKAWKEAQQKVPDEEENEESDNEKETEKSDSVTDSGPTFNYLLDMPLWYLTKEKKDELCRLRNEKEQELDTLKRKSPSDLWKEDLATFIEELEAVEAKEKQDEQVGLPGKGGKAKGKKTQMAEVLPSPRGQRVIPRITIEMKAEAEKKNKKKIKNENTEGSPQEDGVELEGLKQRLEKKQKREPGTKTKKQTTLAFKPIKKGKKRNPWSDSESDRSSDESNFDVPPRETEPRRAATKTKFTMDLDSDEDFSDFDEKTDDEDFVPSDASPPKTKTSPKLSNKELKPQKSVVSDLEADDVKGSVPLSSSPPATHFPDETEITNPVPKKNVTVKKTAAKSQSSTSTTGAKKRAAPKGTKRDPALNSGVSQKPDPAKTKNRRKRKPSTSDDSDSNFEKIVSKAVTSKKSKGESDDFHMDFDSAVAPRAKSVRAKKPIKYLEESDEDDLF
Experimental endpoint: IC50

Just so you know, measured IC50 for N#Cc1cccc2c1CC(CNCCC1CN(c3ccc4c(n3)NC(=O)CO4)C(=O)O1)C2 (stereo unspecified) came out at > 100 µM

###

Test system: Escherichia coli
Assay notes: Antibacterial activity against Escherichia coli ATCC 25922 incubated for 20 to 24 hrs by CLSI based broth microdilution method
Format: functional
Run conditions: time 20-24 hrs
Experimental endpoint: log10(MIC) (log10 of the value in µg/mL)
Units before log transform: µg/mL; reported quantity: MIC; transform: log10.

Just so you know, measured log10(MIC) for O=c1cc(NCC2CN(CC3Cc4ccnc(Cl)c4C3)C2)c2cc(F)ccc2o1 (stereo not given) came out at 0.30

Just so you know, measured log10(MIC) for O=C1COc2ccc(N3CC(CNCCC4Cc5cccc(Cl)c5C4)OC3=O)nc2N1 (stereo not given) came out at -0.60

Just so you know, measured log10(MIC) for O=C1COc2ccc(N3CC(CCCNC4CCc5c(Cl)cccc54)OC3=O)nc2N1 (stereo not given) came out at 0.30

Just so you know, measured log10(MIC) for O=C1COc2ccc(N3CC(CCCNC4Cc5ccc(F)cc5C4)OC3=O)nc2N1 (stereo not given) came out at 0.00

Just so you know, measured log10(MIC) for O=C1COc2ccc(N3CC(CCNCC4Cc5cccc(Cl)c5C4)OC3=O)nc2N1 (stereo not given) came out at -0.90

Just so you know, measured log10(MIC) for O=C1COc2ccc(N3CC(CNC4Cc5cccc(Cl)c5C4)OC3=O)nc2N1 (stereo not given) came out at 0.90

Just so you know, measured log10(MIC) for O=C1COc2ccc(N3CC(CCNC4Cc5cccc(Cl)c5C4)OC3=O)nc2N1 (stereo not given) came out at 0.30

Just so you know, measured log10(MIC) for O=C1COc2ccc(N3CC(CNCC4Cc5cccc(Cl)c5C4)OC3=O)nc2N1 (stereo not given) came out at -0.30

Just so you know, measured log10(MIC) for O=C1COc2ccc(N3CC(CCCNC4Cc5ccccc5C4)OC3=O)nc2N1 (stereo not given) came out at 0.30

Just so you know, measured log10(MIC) for O=C1COc2ccc(N3CC(CCCNC4Cc5ccc(Cl)cc5C4)OC3=O)nc2N1 (stereo not given) came out at 0.30
